- tested target: human PD-L1 on the cell surface (human, UniProt Q9NZQ7 19-290)
- protocol details: cell-based or functional assay
readout: PDL1/PD-1 EC50 [nM], NFAT reporter gene assay (nM)
Respond numerically; units are nM and should not be typed.

| binder | numeric value |
| --- | --- |
| PRO1347 (scFv, anti-PDL1 scFv; also called 37-20-B03-sc09) scFv: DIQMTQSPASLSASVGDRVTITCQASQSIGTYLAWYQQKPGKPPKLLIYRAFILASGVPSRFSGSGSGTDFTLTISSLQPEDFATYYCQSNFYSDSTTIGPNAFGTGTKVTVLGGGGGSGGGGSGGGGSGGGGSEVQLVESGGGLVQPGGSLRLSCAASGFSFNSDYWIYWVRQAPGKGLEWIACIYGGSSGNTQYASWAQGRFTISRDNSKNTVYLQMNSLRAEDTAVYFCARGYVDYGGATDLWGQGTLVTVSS | 0.28 |
| PRO3891 (scFv, anti-PDL1 scFv) scFv: DIQMTQSPSSLSASVGDRVTITCQASQSINDYLAWYQQKPGKAPKLLIYKGGTLASGVPSRFSGSGSGTDFTLTISSLQPEDFATYYCQQGYIITDIDNVFGTGTKVTVLGGGGGSGGGGSGGGGSGGGGSQVQLQESGPGLVKPSETLSLTCKASGFSFSSGYDMCWVRQPPGKGLEWIACVVAGSVDITYYASWAKGRVTISKDSSKNQVSLKLSSVTAADSAVYYCARKDAYSDAFNLWGQGTLVKVSS | 1.36 |
| PRO2230 (scFv, anti-PDL1 scFv; also called 37-20-B03-sc09.1) scFv: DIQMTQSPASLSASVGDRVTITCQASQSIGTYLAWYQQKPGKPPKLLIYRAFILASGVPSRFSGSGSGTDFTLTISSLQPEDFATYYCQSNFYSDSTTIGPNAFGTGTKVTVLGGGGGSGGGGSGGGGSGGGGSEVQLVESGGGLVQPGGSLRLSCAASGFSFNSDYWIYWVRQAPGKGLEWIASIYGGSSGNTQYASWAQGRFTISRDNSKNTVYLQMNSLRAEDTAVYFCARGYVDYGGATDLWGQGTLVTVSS | 0.93 |
| PRO4245 (scFv, anti-PDL1 scFv) scFv: DIQMTQSPSSLSASVGDRVTITCQASQSIGTYLAWYQQKPGKPPKLLIYRGGILASGVPSRFSGSGSGTDFTLTISSLQPEDFATYYCQSNFYSDSTTIGPNAFGTGTKVTVLGGGGGSGGGGSGGGGSGGGGSQQLVESGGGLVQPGGSLRLSCAASGFSFNSDYWIYWVRQAPGKGLEWIASIYGGSSGNTQYASWAQGRFTISKDNSKNTVYLQMNSLRAEDSAVYFCARGYVDYGGATDLWGQGTLVKVSS | 1.81 |

// switching to the query binder
Q: For the binder shown here, PRO1392 (scFv, anti-PDL1 scFv (VL-linker-VH); also called 33-03-G02-sc18) scFv: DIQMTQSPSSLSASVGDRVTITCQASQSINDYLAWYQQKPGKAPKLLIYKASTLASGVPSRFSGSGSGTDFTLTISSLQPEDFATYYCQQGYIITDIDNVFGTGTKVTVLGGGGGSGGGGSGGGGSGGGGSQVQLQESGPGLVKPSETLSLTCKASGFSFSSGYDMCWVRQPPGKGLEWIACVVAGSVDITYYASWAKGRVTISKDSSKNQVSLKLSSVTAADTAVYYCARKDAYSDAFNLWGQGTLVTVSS , give the reported PDL1/PD-1 EC50 [nM], NFAT reporter gene assay.
Ans: 0.97

Provenance of the data: patent EP4574844A1
